- target-of-assay: T1, human FcRn/b2M (human, UniProt P61769 21-119, biotinylated)
- T1 construct: bought recombinant biotinylated protein (ACRO FCM-H82W4 or Immunitrack ITF01); also called hFcRn; hFcRn/hb2M
- T1 sequence (chain, as listed by the source limits assumed, chain 1 of 2): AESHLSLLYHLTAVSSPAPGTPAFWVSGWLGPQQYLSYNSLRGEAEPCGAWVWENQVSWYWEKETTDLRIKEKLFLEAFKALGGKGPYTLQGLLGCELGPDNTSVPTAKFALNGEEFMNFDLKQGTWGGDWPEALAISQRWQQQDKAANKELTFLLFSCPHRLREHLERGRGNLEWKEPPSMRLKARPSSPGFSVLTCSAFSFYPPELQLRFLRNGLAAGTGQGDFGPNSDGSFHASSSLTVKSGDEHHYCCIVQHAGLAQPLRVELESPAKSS
- T1 sequence (P61769 21-119 limits assumed, chain 2 of 2): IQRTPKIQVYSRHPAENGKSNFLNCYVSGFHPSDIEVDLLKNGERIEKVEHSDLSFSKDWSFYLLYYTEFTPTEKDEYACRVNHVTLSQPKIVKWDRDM
- assay-procedure: SPR pH 7.4;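 further: surface plasmon resonance kinetics, periplasmic extracts diluted 1:10 flowed over immobilized target at 25 °C, 120 s association then 600–3600 s dissociation, buffer with 150 mM NaCl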
recorded-endpoint: koff (s⁻¹)
# unit: s⁻¹ | format: bare number

Completed entries (count: 3):
- binder: "T0263018B11 S31T (VHH, name in Kabat numbering, FLAG3-His6 tagged) VHH: EVQLVESGGGVVQPGGSLRLSCAASGFTFSTYAMYWVRQAPGKGLEWVSAISSGGGSTDYADSVKGRFTISRDNSKNTLYLQMNSLRPEDTALYYCAADTLYTSLTWYSYWGQGTLVTVSS"
  koff (s⁻¹): 0.024
- binder: "T0263018B11 S56T (VHH, name in Kabat numbering, FLAG3-His6 tagged) VHH: EVQLVESGGGVVQPGGSLRLSCAASGFTFSSYAMYWVRQAPGKGLEWVSAISSGGGTTDYADSVKGRFTISRDNSKNTLYLQMNSLRPEDTALYYCAADTLYTSLTWYSYWGQGTLVTVSS"
  koff (s⁻¹): 0.055
- binder: "T0263018B11 Y32V (VHH, name in Kabat numbering, FLAG3-His6 tagged) VHH: EVQLVESGGGVVQPGGSLRLSCAASGFTFSSVAMYWVRQAPGKGLEWVSAISSGGGSTDYADSVKGRFTISRDNSKNTLYLQMNSLRPEDTALYYCAADTLYTSLTWYSYWGQGTLVTVSS"
  koff (s⁻¹): 0.048

In the following, a different binder is considered.
Endpoint output: koff of T0263018B11 S52aT (VHH, name in Kabat numbering, FLAG3-His6 tagged) VHH: EVQLVESGGGVVQPGGSLRLSCAASGFTFSSYAMYWVRQAPGKGLEWVSAISTGGGSTDYADSVKGRFTISRDNSKNTLYLQMNSLRPEDTALYYCAADTLYTSLTWYSYWGQGTLVTVSS . Value?
0.062
